src = ChEMBL document CHEMBL1128288

Assignment: determine reported solubility for the given molecules.
# Test details: Solubility in water was determined at 25 degrees Centigrade
# Assay type: physicochemical

Below, 3 molecules whose answers are already recorded.
>  <Molecule>
C[C@H]1[C@H](N)CN1c1nc2c(cc1F)c(=O)c(C(=O)O)cn2C1CC1 (single isomer, unassigned)

>  <solubility>
23 µg/mL

$$$$
>  <Molecule>
C[C@H]1[C@H](N)CN1c1cc2c(cc1F)c(=O)c(C(=O)O)cn2-c1ccc(F)cc1F (single isomer, unassigned)

>  <solubility>
8 µg/mL

$$$$
>  <Molecule>
C[C@H](N)C(=O)N[C@@H](C)C(=O)N[C@@H]1CN(c2nc3c(cc2F)c(=O)c(C(=O)O)cn3C2CC2)[C@H]1C

>  <solubility>
> 500 µg/mL

$$$$

List the reported solubility of each molecule below.
1. C[C@@H](N)C(=O)N[C@@H]1CN(c2nc3c(cc2F)c(=O)c(C(=O)O)cn3C2CC2)[C@H]1C
2. C[C@H](N)C(=O)N[C@@H]1CN(c2cc3c(cc2F)c(=O)c(C(=O)O)cn3-c2ccc(F)cc2F)[C@H]1C
3. CCC[C@H](N)C(=O)N[C@@H]1CN(c2cc3c(cc2F)c(=O)c(C(=O)O)cn3-c2ccc(F)cc2F)[C@H]1C

Resp:
1: 495 µg/mL; 2: > 500 µg/mL; 3: > 500 µg/mL

List the reported solubility of each molecule below.
1. C[C@@H]1[C@@H](NC(=O)[C@@H](C)N)CN1c1nc2c(cc1F)c(=O)c(C(=O)O)cn2C1CC1
2. C[C@H](N)C(=O)N[C@@H]1CN(c2nc3c(cc2F)c(=O)c(C(=O)O)cn3C2CC2)[C@H]1C
3. CC(C)C[C@H](N)C(=O)N[C@@H]1CN(c2nc3c(cc2F)c(=O)c(C(=O)O)cn3C2CC2)[C@H]1C

Resp:
> 500 µg/mL
> 500 µg/mL
> 500 µg/mL

====

Assignment: determine reported MIC for the given compounds.
# Test system: Escherichia coli
# Test details: In vitro antibacterial activity measured as minimum inhibitory concentration, was evaluated on Escherichia coli ATCC 23559(Ec).
# Format: functional
# Condition details: Escherichia coli, ATCC 23559; read-out: MIC
One number for each entry, in µg/mL.

Below, 5 compounds whose answers are already recorded.
>  <Compound>
C[C@@H]1[C@H](N)CN1c1c(F)cc2c(=O)c(C(=O)O)cn(C3CC3)c2c1F (stereo in doubt; 23)

>  <Tested target>
Escherichia coli

>  <Unit>
µg/mL

>  <MIC>
0.06

$$$$
>  <Compound>
Cc1c(F)c(N2C[C@H](N)[C@H]2C)nc2c1c(=O)c(C(=O)O)cn2-c1ccc(F)cc1F

>  <Tested target>
Escherichia coli

>  <Unit>
µg/mL

>  <MIC>
0.06

$$$$
>  <Compound>
CCn1cc(C(=O)O)c(=O)c2cc(F)c(N3C[C@H](N)[C@H]3C)c(F)c21

>  <Tested target>
Escherichia coli

>  <Unit>
µg/mL

>  <MIC>
0.12

$$$$
>  <Compound>
CCn1cc(C(=O)O)c(=O)c2cc(F)c(N3CC(N)C3C)c(F)c21 (stereo not drawn)

>  <Tested target>
Escherichia coli

>  <Unit>
µg/mL

>  <MIC>
0.06

$$$$
>  <Compound>
CC1COc2c(N3CC(C)(N)C3)c(F)cc3c(=O)c(C(=O)O)cn1c23 (single isomer, unassigned)

>  <Tested target>
Escherichia coli

>  <Unit>
µg/mL

>  <MIC>
8

$$$$

List the reported MIC of each compound below.
1. C[C@H](N)C(=O)N[C@@H]1CN(c2nc3c(cc2F)c(=O)c(C(=O)O)cn3C2CC2)[C@H]1C
2. C[C@H]1COc2c(N3CC(N(C)C)C3)c(F)cc3c(=O)c(C(=O)O)cn1c23
3. C[C@@H]1[C@@H](N)CN1c1c(F)cc2c(=O)c(C(=O)O)cn3c2c1OC[C@@H]3C

Resp:
0.12
0.06
0.25
